Source of measurements: patent US20240182536A1

Biological target: T1, human IL-18 binding protein (human, UniProt O95998 31-194)
T1 sequence (looked up): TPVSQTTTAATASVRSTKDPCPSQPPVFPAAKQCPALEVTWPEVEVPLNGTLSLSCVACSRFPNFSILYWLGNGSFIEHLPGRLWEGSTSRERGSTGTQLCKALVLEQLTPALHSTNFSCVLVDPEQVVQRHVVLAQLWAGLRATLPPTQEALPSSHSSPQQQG
Assay: cell-based or functional assay
QUANTITY: HEK-Blue activity, +100 nM BP, DF-1,000,000

yeast display IL-18 variant K53Y, S55Y (ligand) YFGKLESKLSVIRNLNDQVLFIDQGNRPLFEDMTDSDMRDNAPRTIFIISMYYDYQPRGMAVTISVKSEKISTLSSENKIISFKEMNPPDNIKDTKSDIIFFQRSVPGHDNKMQFESSSYEGYFLASEKERDLFKLILKKEDELGDRSIMFTVQNED = 0.21
yeast display IL-18 variant K53S, S55G (ligand) YFGKLESKLSVIRNLNDQVLFIDQGNRPLFEDMTDSDMRDNAPRTIFIISMYSDGQPRGMAVTISVKSEKISTLSSENKIISFKEMNPPDNIKDTKSDIIFFQRSVPGHDNKMQFESSSYEGYFLASEKERDLFKLILKKEDELGDRSIMFTVQNED = 0.27
